Measured composite z-score by item
Molecular target: Alpha-bungarotoxin (Bungarus multicinctus)
Assay: alpha-bungarotoxin binders on microarray, profiling panel, artefact control for SMM control protein annotation, biochemical, small-molecule microarray, Alexa647 label, 635/667 nm fluorescence (AID 1117)
Conditions: alpha-BTX-A647 binding fluorescence, higher = more signal
Please give the numeric answer without any surrounding text.

Below, 3 compounds whose answers are already recorded.
| COMPOUND | TARGET_DESC | composite z-score |
| --- | --- | --- |
| COC(=O)C(CC#Cc1ccc2c(c1)[C@]1(C(=O)N2)[C@H](C(=O)Nc2nc3ccccc3s2)[C@H]2C(=O)O[C@H](c3ccccc3)[C@H](c3ccccc3)N2[C@@H]1c1ccc(O)cc1)C(=O)OC | Alpha-bungarotoxin (Bungarus multicinctus) | 0.982 |
| CCCC=C(CCC)[C@@H](NC(=O)c1cccs1)c1ccc(C(F)(F)F)cc1 | Alpha-bungarotoxin (Bungarus multicinctus) | 0.734 |
| CCCC#C[Si](O[C@H](CC)c1cn(Cc2cccc(Cl)c2)nn1)(C(C)C)C(C)C | Alpha-bungarotoxin (Bungarus multicinctus) | -0.2 |

IN: Given CC(C)NC(=O)[C@@H]1c2ccccc2C(=O)N(C2Cc3ccccc3C2)[C@H]1c1ccc(CO)cc1 , respond with its composite z-score.
OUT: 0.399

IN: Given O=C1C[C@]2(c3ccc([N+](=O)[O-])cc3)C(=O)N(CC(F)(F)F)c3cc(CO)ccc3[C@H]2N1C1CCCCC1 , respond with its composite z-score.
OUT: -0.605

IN: Given O=C(NC1CC1)[C@@H]1c2ccccc2C(=O)N(Cc2ccccc2Cl)[C@H]1c1ccc(CO)cc1 , respond with its composite z-score.
OUT: 0.759

---

Test: P. aeruginosa biofilm formation inhibitors, primary screen, strain PAO1, LB-PBS medium, absorbance 600 nm (AID 1176)
Conditions: P. aeruginosa PAO1 growth/biofilm, A600, 12 h; higher = more signal
Activity calls are given as the source filed them. No rule for the calls is given here.
ENDPOINT_LABEL: z-score

Below, 2 compounds whose answers are already recorded.
| COMPOUND | z-score |
| --- | --- |
| OCCCC1=CC(c2cccs2)N(Cc2cc3c(cc2Br)OCO3)CC1 (stereo not drawn) | 0.531 (inactive) |
| CC(C)C(=C=CC[C@@H](O)c1ccc(OCCO)cc1)C[C@@H](O)COCc1ccccc1 | 0.919 (inactive) |

Now take the following compound into account.
IN: Given CCCC[C@@H]1C[C@H]1[C@@H](NC(=O)c1ccco1)c1ccccc1C(F)(F)F , respond with its z-score.
OUT: -0.0298 (inactive)

---

Assay: HepG2 cell viability effects, profiling panel, calcein-AM fluorescence, 48 h, basal (AID 1164)
Conditions: higher = more signal
Lab note: compare z-score against -0.05. Equal or greater, write Satisfied. Smaller, write Not satisfied.

| MOLECULE | CLASS_NAME |
| --- | --- |
| C=CCOC(=O)[C@H]1[C@@H]2C(=O)O[C@@H](c3ccccc3)[C@@H](c3ccccc3)N2[C@@H](c2ccc(OCCOC(=O)[C@H]3C[C@H]4C(=O)N[C@@H](CCCC[N+](C)(C)C)C(=O)N4[C@H]3c3ccc(O)cc3)cc2)[C@]12C(=O)Nc1ccc(I)cc12 | Satisfied |
| CCCCCCc1nc(-c2cc(C)c(OC)c(C)c2)cc2c1[Si](C(C)C)(C(C)C)OC2 | Satisfied |
| C[N+](C)(C)CCCC[C@@H]1NC(=O)[C@H]2C[C@@H](C(=O)NCCCCCCNC(=O)CS)[C@@H](c3cccc(OCCO)c3)N2C1=O | Not satisfied |
| Cc1ccc(N2C(=O)c3ccccc3[C@@H](C(=O)NC3CC3)[C@@H]2c2ccc(CO)cc2)nc1 | Not satisfied |
| NC(=O)[C@@H]1[C@H]2C(=O)O[C@H](c3ccccc3)[C@H](c3ccccc3)N2[C@H](c2ccc(O)cc2)[C@@]12C(=O)Nc1ccccc12 | Not satisfied |
| CC(=O)NCCCC[C@@H]1NC(=O)[C@@H]2C[C@H](C(=O)NCCCCCNC(=O)CS)[C@H](c3cccc(OCCO)c3)N2C1=O | Not satisfied |

IN: Would you say CN1C(=O)C2C=CC(C(O)C#Cc3ccccc3)N(N3CCCCC3)C2C1=O (centres undefined) shows z-score at minimum -0.05?
OUT: Not satisfied

IN: Would you say COC(=O)[C@@]1(Cc2ccc(F)cc2)[C@H]2c3cc(C(=O)N4CCCC4)n(Cc4ccc(S(C)(=O)=O)cc4)c3C[C@H]2CN1C(=O)c1ccccc1 shows z-score at minimum -0.05?
OUT: Satisfied

---

Tested on: XIP peptide (Xip251-270) binding
Assay: small-molecule binders of XIP peptide, primary screen, biochemical, small-molecule microarray, fluorescence 635/667 nm, 0.1 µg/mL protein (AID 1182)
Conditions: fluorescent protein binding, 635 nm, higher = more signal, called active from +8 up or from −8 down
ENDPOINT_LABEL: composite z-score
Please give the numeric answer without any surrounding text.

| COMPOUND | TARGET_DESC | composite z-score |
| --- | --- | --- |
| C=CC[C@@]12N=C(c3ccc(OCCCO)cc3)O[C@@H]1c1ccccc1N(C)C2=O | XIP peptide (Xip251-270) binding | 0.535 |
| O=C(NCCN1CCOCC1)[C@@H]1c2ccccc2C(=O)N(C2CCCCC2)[C@H]1c1ccc(CO)cc1 | XIP peptide (Xip251-270) binding | -0.403 |

IN: Give composite z-score; test system XIP peptide (Xip251-270) binding; compound O=C1C[C@@](C(=O)NCCN2CCOCC2)(c2ccc([N+](=O)[O-])cc2)[C@@H](c2ccc(CO)cc2)N1CC12CC3CC(CC(C3)C1)C2
OUT: 1.28

IN: Give composite z-score; test system XIP peptide (Xip251-270) binding; compound COc1cc2c(cc1O)C(c1cccs1)N(C)CC2 (stereo not drawn)
OUT: -0.721

IN: Give composite z-score; test system XIP peptide (Xip251-270) binding; compound COc1cc2c(cc1OC)CN(C(=O)[C@@H]1[C@H]3C(=O)O[C@H](c4ccccc4)[C@H](c4ccccc4)N3[C@H](c3ccccc3OCCO)[C@@]13C(=O)Nc1ccc(C#CCCO)cc13)CC2
OUT: 2.75

IN: Give composite z-score; test system XIP peptide (Xip251-270) binding; compound COC(=O)[C@]1(CCC(=O)OC(C)(C)C)N=C(c2ccc(OCCCO)cc2)O[C@@H]1c1ccccc1CN=[N+]=[N-]
OUT: 1.52

IN: Give composite z-score; test system XIP peptide (Xip251-270) binding; compound C=C(CC1([C@@H](NP(=O)(c2ccccc2)c2ccccc2)[C@H]2C[C@@H]2CCCC)CC1)c1ccccc1
OUT: -0.0402

---

Target: E3 ubiquitin-protein ligase XIAP (Homo sapiens)
Test: XIAP binders, primary screen, biophysical, small-molecule microarray, fluorescence 635 nm (AID 1181);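 also: score merges 667 nm emission and signal to noise over triplicate slides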
Details: small-molecule microarray binding, higher = more signal
Lab note: compare composite z-score against 0.03. Equal or greater, write T. Smaller, write F.

Known results for compounds:
| COMPOUND | CLASS_NAME |
| --- | --- |
| C=CCC(OC(C)=O)[C@@H]1[C@@H](N(Cc2cccc3ccccc23)C(=O)c2ccc(-c3ccccc3)cc2)c2cc(OCCCO)ccc2N1C(=O)c1ccc2ccccc2c1 (stereo not given in full) | T |
| CN(C)CCCC[C@@H]1NC(=O)[C@H]2C[C@@H](C(=O)NCCCCCCN)[C@@H](c3ccc(O)cc3)N2C1=O | T |
| C=CCN1C(=O)[C@@]2(CC=C)N=C(c3ccc(OCCCO)cc3)O[C@H]2c2ccccc21 | T |
| C=C(COC)/C(=C/C[C@@H](OC(C)=O)c1ccc(OCCO)cc1)c1cnc2ccccc2c1 | T |

IN: Would you say Cc1ccc(S[C@]2(C(=O)NC3CC3)CC(=O)N(Cc3ccccc3)[C@@H]2c2ccc(CO)cc2I)cc1 shows composite z-score at minimum 0.03?
OUT: F

IN: Would you say CCC(CC)C(O)C1C=CC2C(=O)NC(=O)C2N1Nc1ccc(Cl)cc1Cl (stereo not given) shows composite z-score at minimum 0.03?
OUT: F

IN: Would you say [N-]=[N+]=NCc1ccccc1C[C@]1(C(=O)N2CCCCC2)N=C(c2ccc(OCCCO)cc2)O[C@H]1c1ccccc1N=[N+]=[N-] shows composite z-score at minimum 0.03?
OUT: F

IN: Would you say COC(=O)[C@@]1(Cc2ccc(OC)cc2)[C@H]2c3cc(C(=O)N(C)C)n(C)c3C[C@H]2CN1C(=O)c1ccccc1 shows composite z-score at minimum 0.03?
OUT: F

IN: Would you say C=CC1(C(=O)OC)CC=C(C(=O)OC)CC1 (stereo not given) shows composite z-score at minimum 0.03?
OUT: F

IN: Would you say COc1ccc(CCNC(=O)[C@@H]2c3ccccc3C(=O)N(Cc3ccccc3Cl)[C@H]2c2ccc(CO)cc2)cc1 shows composite z-score at minimum 0.03?
OUT: F
